- system.under.test: MetAP2 (Homo sapiens, UniProt P50579)
- Sequence (P50579 whole entry): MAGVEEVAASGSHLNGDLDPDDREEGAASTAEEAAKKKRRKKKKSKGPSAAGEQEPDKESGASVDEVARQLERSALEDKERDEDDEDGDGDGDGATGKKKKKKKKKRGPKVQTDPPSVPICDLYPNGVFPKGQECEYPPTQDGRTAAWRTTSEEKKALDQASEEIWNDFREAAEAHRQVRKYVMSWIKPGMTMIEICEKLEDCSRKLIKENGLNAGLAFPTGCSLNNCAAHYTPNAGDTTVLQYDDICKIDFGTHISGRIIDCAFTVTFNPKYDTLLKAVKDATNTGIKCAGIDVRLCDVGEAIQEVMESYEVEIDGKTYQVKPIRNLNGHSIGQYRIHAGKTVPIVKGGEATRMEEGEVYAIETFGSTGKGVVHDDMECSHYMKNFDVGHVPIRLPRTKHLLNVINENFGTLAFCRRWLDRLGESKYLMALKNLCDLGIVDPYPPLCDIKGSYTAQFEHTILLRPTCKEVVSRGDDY
- assay.method.text: MetAP2 cellular activity: Western blotting of NMet-14-3-3γ in HUVEC cells
- Format: cell-based
- Parameters: host or cells: HUVEC
- condition.notes: 24 hours, ratio of unprocessed N-Met14-3-3γ over β-actin, read-out: MetAP2 Cell pEC50 (converted)
- Procedure: HUVEC cells (Lonza) are seeded in 96-well tissue culture microplates and cultured for 24 hours prior to addition of test compounds (11 point range of serial dilutions) or DMSO vehicle. After 24 hours, whole cell extracts are prepared by lysing cells in cell extraction buffer (Cell Signaling) containing protease and phosphatase inhibitors (Calbiochem). […] Membranes are scanned on the Odyssey (Li-Cor) and signals corresponding to N-Met14-3-3γ and β-actin are quantified using LiCor software. […]
Can you tell me EC50 for the items I'm about to list?
One number for each entry, in nM.

cpd_smiles=CO[C@@H]1[C@H](OCCP(=O)(OC)OC)CC[C@]2(CO2)[C@H]1[C@@]1(C)O[C@@H]1CC=C(C)C scale_unit=nM measured_value=3.47

// input: 3 compounds below; output: EC50 for each
1. CCOP(=O)(CCO[C@@H]1CC[C@]2(CO2)[C@@H]([C@@]2(C)O[C@@H]2CC=C(C)C)[C@@H]1OC)OCC
2. CO[C@@H]1[C@H](OCCP(=O)(c2ccc(C)cc2)c2ccc(C)cc2)CC[C@]2(CO2)[C@H]1[C@@]1(C)O[C@@H]1CC=C(C)C
3. CO[C@@H]1[C@H](OCCP(=O)(c2ccccc2)c2ccccc2)CC[C@]2(CO2)[C@H]1[C@@]1(C)O[C@@H]1CC=C(C)C

stdout:
1. 6.17
2. 6.61
3. 4.79
